tested on: UACC-62 melanoma; experiment: NCI tumour cell line growth inhibition, 48 h
recorded endpoint: TGI

Request - read-out TGI | tested on UACC-62 melanoma | compound C=CCSC[C@H](NC(=O)COc1ccccc1)C(=O)NC(C(=O)OCc1ccc([N+](=O)[O-])cc1)=C(C)C
> 100 µM

Request - read-out TGI | tested on UACC-62 melanoma | compound COc1cccc(/C=C/C(=O)c2cc3c(N)c(C(=O)Nc4ccccc4C)sc3nc2C)c1
2 µM

Request - read-out TGI | tested on UACC-62 melanoma | compound O=c1oc2ccccc2c(O)c1C(c1cc(OCc2ccccc2)cc(OCc2ccccc2)c1)c1c(O)c2ccccc2oc1=O
15.7 µM

Request - read-out TGI | tested on UACC-62 melanoma | compound CN=C(N)N/N=C(\c1ccccc1)c1ccc(Br)cc1
9.16 µM

Request - read-out TGI | tested on UACC-62 melanoma | compound CN1CCN(CC#Cc2cccc(C(=O)c3cnn(-c4ccc(F)cc4)c3N)c2)CC1
> 25 µM

Request - read-out TGI | tested on UACC-62 melanoma | compound CSC1=NC=CCN1C
> 100 µM

Request - read-out TGI | tested on UACC-62 melanoma | compound CCOC(=O)C1=C(C)Nc2ccccc2S1
> 100 µM

Request - read-out TGI | tested on UACC-62 melanoma | compound COc1ccc(Nc2c(C#N)c3n(c4ccccc24)c2ccccc2[n+]3C)cc1OC
12.5 µM

Request - read-out TGI | tested on UACC-62 melanoma | compound CC12CC(c3ccccc3O1)C(C(=O)Nc1ccc(F)cc1)C(=O)N2 (configuration not stated)
> 100 µM

Request - read-out TGI | tested on UACC-62 melanoma | compound Cc1nn(-c2ccc(S(=O)(=O)[O-])cc2)c([O-])c1N=[N+](C)c1ccc(-c2ccc(N=Nc3ccc4c(S(=O)(=O)[O-])cc(S(=O)(=O)[O-])c(N)c4c3[O-])c([O-])c2)cc1[O-].[Cu+2].[Cu+2].[Na+]
> 100 µM

Request - read-out TGI | tested on UACC-62 melanoma | compound Nc1nc2ncc(SCc3ccc(C(=O)NC(CCC(=O)O)C(=O)O)cc3)cc2c(=O)[nH]1 (configuration not stated)
> 100 µM

Request - read-out TGI | tested on UACC-62 melanoma | compound Cc1ccccc1C1OC1C(=O)c1ccccc1N (configuration not stated)
> 100 µM

Request - read-out TGI | tested on UACC-62 melanoma | compound O=C1CCCN(c2ccccc2)N1
> 100 µM

Request - read-out TGI | tested on UACC-62 melanoma | compound CCCN=C1CC(C)Nc2ccccc2N1 (configuration not stated)
> 100 µM

Request - read-out TGI | tested on UACC-62 melanoma | compound Clc1cc(N/N=C(/c2ccccc2)c2ncccn2)ncn1
> 100 µM

Request - read-out TGI | tested on UACC-62 melanoma | compound O=C(C#Cc1c[nH]c(=O)[nH]c1=O)c1ccccc1Cl
38.6 µM

Request - read-out TGI | tested on UACC-62 melanoma | compound COc1cc(COC(=O)N[C@H](C(=O)O)C(C)(C)C)c([N+](=O)[O-])cc1OC
> 100 µM

Request - read-out TGI | tested on UACC-62 melanoma | compound Cc1ccc2c(c1)nc(N)n[n+]2[O-]
> 100 µM

Request - read-out TGI | tested on UACC-62 melanoma | compound O=C(c1cccs1)c1c(C(F)(F)F)n([O-])c2ccccc2[n+]1=O
1.6 µM

Request - read-out TGI | tested on UACC-62 melanoma | compound CCCCCCCCCCCCCC(=S)NCCCC[C@H](NC(=O)OCc1ccccc1)C(=O)Nc1ccccc1
> 100 µM

Request - read-out TGI | tested on UACC-62 melanoma | compound c1sc(NC2=NCCO2)c2c1CCCC2
> 100 µM

Request - read-out TGI | tested on UACC-62 melanoma | compound CSc1nc(SC)c2c(CN=[N+]=[N-])c(Br)n(Cc3ccccc3)c2n1
> 100 µM
